Exercise: state measured shrunken log2 fold change for each of the sequences provided.
System: Escherichia coli TOP10
PROCEDURE_SUMMARY: shrunken log2 fold change of peptide-encoding DNA abundance (4.5 h post-induction vs induction); higher = less antimicrobial activity (less host growth inhibition)
CONDITION_DETAILS: time post-induction: 4.5 h; library: site-saturation at positions 5, 18, 19, 20
Numbers only.

RRIRHRPPRLPRPRPRPGRRPRP	0.525
RRIRARPPRLPRPRPRPKIDPRP	0.115
RRIRRRPPRLPRPRPRPLTCPRP	-0.12
RRIRKRPPRLPRPRPRPQYAPRP	0.0233
RRIRVRPPRLPRPRPRPFAIPRP	-0.765

Query RRIRHRPPRLPRPRPRPYAKPRP on Escherichia coli TOP10; shrunken log2 fold change returned: -0.0134

---

System: Escherichia coli TOP10
PROCEDURE_SUMMARY: shrunken log2 fold change of peptide-encoding DNA abundance (4.5 h post-induction vs induction); higher = less antimicrobial activity (less host growth inhibition)
CONDITION_DETAILS: time post-induction: 4.5 h; library: site-saturation at positions 5, 18, 19, 20
Assign class by shrunken log2 fold change: not lower than -0.007 means fulfilled; lower than -0.007 means not fulfilled.

RRIRYRPPRLPRPRPRPMNAPRP	not fulfilled
RRIRIRPPRLPRPRPRPHMYPRP	not fulfilled
RRIRNRPPRLPRPRPRPPHAPRP	fulfilled
RRIRGRPPRLPRPRPRPQGCPRP	fulfilled
RRIRKRPPRLPRPRPRPWHKPRP	not fulfilled
RRIRWRPPRLPRPRPRPYMHPRP	not fulfilled
RRIRARPPRLPRPRPRPAIVPRP	not fulfilled
RRIRARPPRLPRPRPRPFNQPRP	not fulfilled

Inquiry: Check this sequence for shrunken log2 fold change at or above -0.007: RRIRIRPPRLPRPRPRPEQHPRP
Reply text: not fulfilled

Inquiry: Check this sequence for shrunken log2 fold change at or above -0.007: RRIRWRPPRLPRPRPRPNTNPRP
Reply text: not fulfilled

Inquiry: Check this sequence for shrunken log2 fold change at or above -0.007: RRIRGRPPRLPRPRPRPHAFPRP
Reply text: fulfilled

Inquiry: Check this sequence for shrunken log2 fold change at or above -0.007: RRIRERPPRLPRPRPRPKNKPRP
Reply text: not fulfilled

Inquiry: Check this sequence for shrunken log2 fold change at or above -0.007: RRIRWRPPRLPRPRPRPGYQPRP
Reply text: not fulfilled

Inquiry: Check this sequence for shrunken log2 fold change at or above -0.007: RRIRIRPPRLPRPRPRPLHSPRP
Reply text: not fulfilled

Inquiry: Check this sequence for shrunken log2 fold change at or above -0.007: RRIRGRPPRLPRPRPRPPQNPRP
Reply text: fulfilled

Inquiry: Check this sequence for shrunken log2 fold change at or above -0.007: RRIRNRPPRLPRPRPRPWPPPRP
Reply text: fulfilled

Inquiry: Check this sequence for shrunken log2 fold change at or above -0.007: RRIRTRPPRLPRPRPRPPDPPRP
Reply text: fulfilled

---

Tested on: Escherichia coli TOP10;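 also: peptides expressed intracellularly from a pBAD plasmid library in pooled LB shake-flask culture, induced with 0.3% L-arabinose, DNA abundance read by NGS, three biological replicates, DESeq2 with apeglm shrinkage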
PROCEDURE_SUMMARY: shrunken log2 fold change of peptide-encoding DNA abundance (4.5 h post-induction vs induction); higher = less antimicrobial activity (less host growth inhibition)
CONDITION_DETAILS: time post-induction: 4.5 h; library: site-saturation at positions 5, 18, 19, 20
Exercise: state measured shrunken log2 fold change for each of the sequences provided.

Lab note: each sequence below needs its shrunken log2 fold change filled in.
1. RRIRQRPPRLPRPRPRPDCPPRP
2. RRIRRRPPRLPRPRPRPLARPRP
3. RRIRRRPPRLPRPRPRPMFIPRP
4. RRIRARPPRLPRPRPRPDGEPRP
5. RRIRPRPPRLPRPRPRPYPKPRP
6. RRIRWRPPRLPRPRPRPEKDPRP
7. RRIRHRPPRLPRPRPRPRQAPRP
8. RRIRNRPPRLPRPRPRPGLTPRP

Reply text:
[-0.283, 0.153, -0.275, 0.209, -0.0921, -0.0712, 0.495, -0.0698]

Lab note: each sequence below needs its shrunken log2 fold change filled in.
1. RRIRERPPRLPRPRPRPQFNPRP
2. RRIRERPPRLPRPRPRPLDFPRP
3. RRIRIRPPRLPRPRPRPWIGPRP
4. RRIRLRPPRLPRPRPRPICNPRP

Reply text:
-0.167
-0.353
-0.0616
-0.243

Lab note: each sequence below needs its shrunken log2 fold change filled in.
1. RRIRRRPPRLPRPRPRPEMAPRP
2. RRIRTRPPRLPRPRPRPKLRPRP
3. RRIRLRPPRLPRPRPRPYWSPRP

Reply text:
1. 0.145
2. -0.0516
3. -1.41

Lab note: each sequence below needs its shrunken log2 fold change filled in.
1. RRIRERPPRLPRPRPRPLMKPRP
2. RRIRPRPPRLPRPRPRPICKPRP
3. RRIRPRPPRLPRPRPRPQPQPRP
4. RRIRRRPPRLPRPRPRPLTGPRP
5. RRIRHRPPRLPRPRPRPDQNPRP
6. RRIRVRPPRLPRPRPRPNRLPRP
7. RRIRVRPPRLPRPRPRPYYRPRP

Reply text:
-0.502
-0.081
0.26
0.0456
-0.14
0.0105
-0.309
